tested on: ACVR1; conditions: concentration: 1 μM, replicates: in singlicate; n = 1
Give %Inh for every item shown.
Could you give me the number in %? Just the number is fine.

Give %Inh for `Cc1ccc(C(=O)NCC(N)=O)cc1-n1c(C)cc(OCc2ccc(F)cc2F)c(Br)c1=O` tested on ACVR1.
11

Specify %Inh for CN(C(=O)c1ccc(-c2cc(-c3c[nH]nc3-c3ccccn3)ccn2)cc1)C1CCOCC1 [GW810083] , system ACVR1.
0

Answer briefly: %Inh recorded on ACVR1 for C[C@@H](Oc1cc(-n2cnc3ccc(NC(=O)NC(C)(C)C)cc32)sc1C(N)=O)c1ccccc1Cl [GSK346294]
0

Tell me %Inh of CN(C1=C(c2ccccc2)C(=O)NC1=O)c1ccccc1 [SB-334860] when tested on ACVR1.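 Also: KINOMEscan kinase panel screen.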
1
